# mortality (score) Mp per record follows
tested on: peach potato aphids (Myzus persicae); conditions: 500 ppm by weight; infested Chinese cabbage leaves sprayed; mortality assessed after three days
MEASURED_METRIC: mortality (score) Mp

COMPOUND	STUDY_TARGET	RECORDED_RESULT
Cc1nsc(NC(=O)C(F)c2ccc3oc(CC(C)(C)C)nc3c2)c1Cl (stereo not shown)	peach potato aphids (Myzus persicae)	9 (9 indicates 80-100% mortality)
CCOCN(C(=O)/C=C/c1ccc2oc(CC(C)(C)C)nc2c1)c1snc(C)c1Cl	peach potato aphids (Myzus persicae)	0 (represents less than 40% mortality)
Cc1nsc(NC(=O)C(O)c2ccc3oc(CC(C)(C)C)nc3c2)c1Cl (stereo not shown)	peach potato aphids (Myzus persicae)	0 (represents less than 40% mortality)
CC(=O)OCC(C(=O)Nc1snc(C)c1Cl)c1ccc2oc(CC(C)(C)C)nc2c1 (stereo not shown)	peach potato aphids (Myzus persicae)	5 (5 indicates 40-79% mortality)
CCOCN(C(=O)C(C)c1ccc2oc(CC(C)(C)C)nc2c1)c1snc(CC)c1Cl (stereo not shown)	peach potato aphids (Myzus persicae)	9 (9 indicates 80-100% mortality)
CCOCN(C(=O)C(C)c1ccc2oc(CC(C)C)nc2c1)c1snc(C)c1Cl (stereo not shown)	peach potato aphids (Myzus persicae)	9 (9 indicates 80-100% mortality)
CCOCN(C(=O)C(C)c1ccc2oc(CC(C)(C)C)nc2c1)c1snc(C)c1Cl (stereo not shown)	peach potato aphids (Myzus persicae)	9 (9 indicates 80-100% mortality)
CCOCN(C(=O)C(C)c1ccc2oc(CC(C)C)nc2c1)c1snc(CC)c1Cl (stereo not shown)	peach potato aphids (Myzus persicae)	9 (9 indicates 80-100% mortality)
Cc1nsc(NC(=O)C(=O)c2ccc3oc(CC(C)(C)C)nc3c2)c1Cl	peach potato aphids (Myzus persicae)	9 (9 indicates 80-100% mortality)
CCOCN(C(=O)C(C)c1ccc2oc(C(F)(F)C(F)(F)C(F)(F)F)nc2c1)c1snc(CC)c1Cl (stereo not shown)	peach potato aphids (Myzus persicae)	9 (9 indicates 80-100% mortality)
CCOCN(C(=O)C(C)c1ccc2oc(CC(F)(F)F)nc2c1)c1snc(C)c1Cl (stereo not shown)	peach potato aphids (Myzus persicae)	9 (9 indicates 80-100% mortality)
CCc1nsc(NC(=O)C(C)c2ccc3sc(CC(C)(C)C)nc3c2)c1Cl (stereo not shown)	peach potato aphids (Myzus persicae)	0 (represents less than 40% mortality)
CCc1nsc(NC(=O)C(C)c2ccc3oc(CC(C)(C)C)nc3c2)c1Cl (stereo not shown)	peach potato aphids (Myzus persicae)	9 (9 indicates 80-100% mortality)
CCC(C(=O)Nc1snc(C)c1Cl)c1ccc2oc(C(F)(F)C(F)(F)C(F)(F)F)nc2c1 (stereo not shown)	peach potato aphids (Myzus persicae)	5 (5 indicates 40-79% mortality)
CCOC(=O)CNN=C(C(=O)Nc1snc(C)c1Cl)c1ccc2oc(CC(C)(C)C)nc2c1	peach potato aphids (Myzus persicae)	9 (9 indicates 80-100% mortality)
CCc1nsc(NC(=O)C(CC)c2ccc3oc(C(F)(F)C(F)(F)C(F)(F)F)nc3c2)c1Cl (stereo not shown)	peach potato aphids (Myzus persicae)	0 (represents less than 40% mortality)
CCOCN(C(=O)C(C)c1ccc2sc(CC(C)C)nc2c1)c1snc(CC)c1Cl (stereo not shown)	peach potato aphids (Myzus persicae)	9 (9 indicates 80-100% mortality)
CCc1nsc(NC(=O)C(F)c2ccc3oc(CC(C)(C)C)nc3c2)c1Cl (stereo not shown)	peach potato aphids (Myzus persicae)	9 (9 indicates 80-100% mortality)
CCOCN(C(=O)C(F)c1ccc2oc(CC(C)(C)C)nc2c1)c1snc(C)c1Cl (stereo not shown)	peach potato aphids (Myzus persicae)	9 (9 indicates 80-100% mortality)
CCOCN(C(=O)C(F)c1ccc2oc(C(F)(F)C(F)(F)C(F)(F)F)nc2c1)c1snc(CC)c1Cl (stereo not shown)	peach potato aphids (Myzus persicae)	9 (9 indicates 80-100% mortality)
CCc1nsc(NC(=O)C(F)c2ccc3oc(CC(C)C)nc3c2)c1Cl (stereo not shown)	peach potato aphids (Myzus persicae)	9 (9 indicates 80-100% mortality)
CCOCN(C(=O)CCc1ccc2oc(CC(C)(C)C)nc2c1)c1snc(C)c1Cl	peach potato aphids (Myzus persicae)	9 (9 indicates 80-100% mortality)
CCc1nsc(NC(=O)C(C)c2ccc3oc(CC(F)(F)F)nc3c2)c1Cl (stereo not shown)	peach potato aphids (Myzus persicae)	9 (9 indicates 80-100% mortality)
Cc1nsc(NC(=O)C(=CO)c2ccc3oc(CC(C)(C)C)nc3c2)c1Cl	peach potato aphids (Myzus persicae)	0 (represents less than 40% mortality)
Cc1nsc(NC(=O)C(F)c2ccc3oc(C(F)(F)C(F)(F)C(F)(F)F)nc3c2)c1Cl (stereo not shown)	peach potato aphids (Myzus persicae)	9 (9 indicates 80-100% mortality)
Cc1nsc(NC(=O)C(SC(C)C)c2ccc3oc(CC(C)(C)C)nc3c2)c1Cl (stereo not shown)	peach potato aphids (Myzus persicae)	0 (represents less than 40% mortality)
CCOCN(C(=O)C(F)c1ccc2oc(CC(C)(C)C)nc2c1)c1snc(CC)c1Cl (stereo not shown)	peach potato aphids (Myzus persicae)	9 (9 indicates 80-100% mortality)
CCOCN(C(=O)C(C)c1ccc2sc(CC(C)(C)C)nc2c1)c1snc(CC)c1Cl (stereo not shown)	peach potato aphids (Myzus persicae)	9 (9 indicates 80-100% mortality)
COC=C(C(=O)Nc1snc(C)c1Cl)c1ccc2oc(CC(C)(C)C)nc2c1	peach potato aphids (Myzus persicae)	9 (9 indicates 80-100% mortality)
Cc1nsc(NC(=O)C(CC#N)c2ccc3oc(CC(C)(C)C)nc3c2)c1Cl (stereo not shown)	peach potato aphids (Myzus persicae)	5 (5 indicates 40-79% mortality)
Cc1nsc(NC(=O)C(C)c2ccc3oc(CC(C)C)nc3c2)c1Cl (stereo not shown)	peach potato aphids (Myzus persicae)	0 (represents less than 40% mortality)

###

test system: peach potato aphids (Myzus persicae); test: whole plant or invertebrate; conditions: 72 h, read-out: mortality (score) Mp

COMPOUND	STUDY_TARGET	mortality at 500 ppm
Cc1nsc(NC(=O)C(=CN(C)C)c2ccc3oc(CC(C)(C)C)nc3c2)c1Cl [Table 14 Compound 7]	peach potato aphids (Myzus persicae)	80 to 100%
Cc1nsc(NC(=O)C(C)c2ccc3oc(CC(F)(F)F)nc3c2)c1Cl (stereo not drawn) [Table 1 Compound 8]	peach potato aphids (Myzus persicae)	40 to 79%
Cc1nsc(NC(=O)C(C)(F)c2ccc3oc(CC(C)(C)C)nc3c2)c1Cl (stereo not drawn) [Table 6 Compound 7]	peach potato aphids (Myzus persicae)	80 to 100%
CCc1nsc(NC(=O)C(C)c2ccc3sc(CC(C)C)nc3c2)c1Cl (stereo not drawn) [Table 39 Compound 86]	peach potato aphids (Myzus persicae)	40 to 79%
CCNC=C(C(=O)Nc1snc(C)c1Cl)c1ccc2oc(CC(C)(C)C)nc2c1 [Table 15 Compound 7]	peach potato aphids (Myzus persicae)	80 to 100%
Cc1nsc(NC(=O)C(C)c2ccc3oc(CC(C)(C)C)nc3c2)c1Cl (stereo not drawn) [Table 1 Compound 7]	peach potato aphids (Myzus persicae)	40 to 79%

###

tested on: two-spotted spider mites (Tetranychus urticae); settings: liquid composition containing 500 ppm by weight of compound

MOLECULE	STUDY_TARGET	mortality (score) Tu
Cc1nsc(NC(=O)C(=CNCc2ccc(Cl)cc2)c2ccc3oc(CC(C)(C)C)nc3c2)c1Cl	two-spotted spider mites (Tetranychus urticae)	9 (9 indicates 80-100% mortality)
Cc1nsc(NC(=O)C(=CN(C)C)c2ccc3oc(CC(C)(C)C)nc3c2)c1Cl	two-spotted spider mites (Tetranychus urticae)	9 (9 indicates 80-100% mortality)
Cc1nsc(NC(=O)C(CC#N)c2ccc3oc(CC(C)(C)C)nc3c2)c1Cl (stereo not shown)	two-spotted spider mites (Tetranychus urticae)	9 (9 indicates 80-100% mortality)
Cc1nsc(NC(=O)C(=CO)c2ccc3oc(CC(C)(C)C)nc3c2)c1Cl	two-spotted spider mites (Tetranychus urticae)	9 (9 indicates 80-100% mortality)
Cc1nsc(NC(=O)C(F)c2ccc3oc(CC(C)(C)C)nc3c2)c1Cl (stereo not shown)	two-spotted spider mites (Tetranychus urticae)	9 (9 indicates 80-100% mortality)
Cc1nsc(NC(=O)C(O)c2ccc3oc(CC(C)(C)C)nc3c2)c1Cl (stereo not shown)	two-spotted spider mites (Tetranychus urticae)	9 (9 indicates 80-100% mortality)
Cc1nsc(NC(=O)C(SC(C)C)c2ccc3oc(CC(C)(C)C)nc3c2)c1Cl (stereo not shown)	two-spotted spider mites (Tetranychus urticae)	9 (9 indicates 80-100% mortality)
CCOCN(C(=O)/C=C/c1ccc2oc(CC(C)(C)C)nc2c1)c1snc(C)c1Cl	two-spotted spider mites (Tetranychus urticae)	0 (represents less than 40% mortality)
CCNC=C(C(=O)Nc1snc(C)c1Cl)c1ccc2oc(CC(C)(C)C)nc2c1	two-spotted spider mites (Tetranychus urticae)	9 (9 indicates 80-100% mortality)
Cc1nsc(NC(=O)C(=O)c2ccc3oc(CC(C)(C)C)nc3c2)c1Cl	two-spotted spider mites (Tetranychus urticae)	0 (represents less than 40% mortality)

###

system: fruit flies (Drosophila melanogaster); test: pesticidal test against fruit flies; conditions: liquid composition containing 500 ppm by weight of compound

COMPOUND	mortality (score) Dm
Cc1nsc(NC(=O)C(C)(F)c2ccc3oc(CC(C)(C)C)nc3c2)c1Cl (stereo not shown)	5 (5 indicates 40-79% mortality)
CCOCN(C(=O)/C=C/c1ccc2oc(CC(C)(C)C)nc2c1)c1snc(C)c1Cl	0 (represents less than 40% mortality)
CCc1nsc(NC(=O)C(C)c2ccc3oc(CC(C)(C)C)nc3c2)c1Cl (stereo not shown)	9 (9 indicates 80-100% mortality)
COC=C(C(=O)Nc1snc(C)c1Cl)c1ccc2oc(CC(C)(C)C)nc2c1	0 (represents less than 40% mortality)
CCc1nsc(NC(=O)C(CC)c2ccc3oc(C(F)(F)C(F)(F)C(F)(F)F)nc3c2)c1Cl (stereo not shown)	0 (represents less than 40% mortality)
CCOCN(C(=O)C(C)c1ccc2oc(C(F)(F)C(F)(F)C(F)(F)F)nc2c1)c1snc(CC)c1Cl (stereo not shown)	9 (9 indicates 80-100% mortality)
CCOCN(C(=O)C(C)c1ccc2oc(CC(F)(F)F)nc2c1)c1snc(C)c1Cl (stereo not shown)	9 (9 indicates 80-100% mortality)
Cc1nsc(NC(=O)C(O)c2ccc3oc(CC(C)(C)C)nc3c2)c1Cl (stereo not shown)	9 (9 indicates 80-100% mortality)
CCc1nsc(NC(=O)C(F)c2ccc3oc(CC(C)(C)C)nc3c2)c1Cl (stereo not shown)	9 (9 indicates 80-100% mortality)
CCc1nsc(NC(=O)C(C)c2ccc3oc(C)nc3c2)c1Cl (stereo not shown)	9 (9 indicates 80-100% mortality)
CCc1nsc(NC(=O)C(OC)c2ccc3oc(CC(C)C)nc3c2)c1Cl (stereo not shown)	5 (5 indicates 40-79% mortality)
CCOCN(C(=O)C(F)c1ccc2oc(C(F)(F)C(F)(F)C(F)(F)F)nc2c1)c1snc(CC)c1Cl (stereo not shown)	0 (represents less than 40% mortality)
CCOCN(C(=O)C(F)c1ccc2oc(CC(C)(C)C)nc2c1)c1snc(CC)c1Cl (stereo not shown)	9 (9 indicates 80-100% mortality)
Cc1nsc(NC(=O)C(F)c2ccc3sc(CC(C)(C)C)nc3c2)c1Cl (stereo not shown)	9 (9 indicates 80-100% mortality)
CCc1nsc(NC(=O)C(F)c2ccc3sc(CC(C)(C)C)nc3c2)c1Cl (stereo not shown)	9 (9 indicates 80-100% mortality)
CCOCN(C(=O)CCc1ccc2oc(CC(C)(C)C)nc2c1)c1snc(C)c1Cl	0 (represents less than 40% mortality)
